Values compiled from patent US20250339569A1.

- test.name: Biodistribution study (SPECT/CT) in HT-29 tumor-bearing mice
- Format: in vivo, NMRI nude mice
- study.conditions: female, NMRI nude, mouse, in vivo, iv, total radioactivity, Liver uptake at 4 h p.i.
measurement.name: tissue uptake at 4 h (%ID/g)
Write the number in %ID/g without appending the unit.

Data request: What value of measured tissue uptake at 4 h is listed for "CC(C)C[C@@H]1NC(=O)[C@H](Cc2ccc(NC(=O)CCS(N)(=O)=O)cc2)NC(=O)[C@H](CC(=O)O)NC(=O)[C@H]2CCCN2C(=O)[C@H](CCC(=O)O)NC(=O)[C@@H](NC(=O)[C@H](CCC(N)=O)NC(=O)CN2CCN(CC(=O)O)CCN(CC(=O)O)CCN(CC(=O)O)CC2)CSCc2cccc(c2)CSC[C@@H](C(N)=O)NC(=O)[C@H](CO)NC(=O)[C@H](Cc2c[nH]c3ccccc23)NC(=O)[C@H]([C@@H](C)O)NC1=O" ?
Data returned: 0.12

---

- target.or.system: CAIX-expressing human HT-29 colorectal cancer cells (Homo sapiens)
- Construct: CAIX-expressing human HT-29 colorectal cancer cells; host or cells: HT-29 human colorectal cancer cells
- test.name: FACS binding assay (IC50 determination, competition with tracer 3BP-2776 or 3BP-4149)
- study.conditions: FACS competition on HT-29 cells, Tracer ID 3BP-2776 (10 nM, biotin-labeled), 4° C., 1 hour; read-out: pIC50 category (activity) (converted)
Starred links: 1 amine or outer side, 2 acyl side, 3 side chain; linkers in the order of their positions; H or OH if unused. Positions of bridges follow the written chain, without caps; N, C: chain ends. Non-standard residues stand in square brackets, D forms with d. Residues, ends and D or L forms follow the SMILES beside them. *: point of attachment. DOTA = O=C(O)CN1CCN(CC(=O)O)CCN(CC(=O)*)CCN(CC(=O)O)CC1; mXylylene = c1cc(C[*:1])cc(C[*:2])c1; Tle = CC(C)(C)[C@H](N)C(=O)O
measurement.name: IC50

Data request: What value of IC50 on CAIX-expressing human HT-29 colorectal cancer cells (Homo sapiens) does CC(=O)N[C@H](C(=O)N[C@@H](Cc1ccc(O)cc1)C(=O)N[C@H]1CSCc2cccc(c2)CSC[C@@H](C(N)=O)NC(=O)[C@H](CCC(N)=O)NC(=O)[C@H](Cc2c[nH]c3ccccc23)NC(=O)[C@H]([C@@H](C)O)NC(=O)[C@H](C(C)(C)C)NC(=O)[C@H](Cc2c[nH]c3ccccc23)NC(=O)[C@H](CC(=O)O)NC(=O)CNC(=O)[C@H](CCC(=O)O)NC1=O)C(C)C [3BP-3066] (Ac-VYCEGDW[Tle]TWQC-NH2; linker 3-12 via mXylylene) have?
Data returned: 10 to 79.4 nM

Data request: I'm curious: which IC50 was measured for CC(C)C[C@@H]1NC(=O)[C@H](Cc2c[nH]c3ccccc23)NC(=O)[C@H](CC(=O)O)NC(=O)[C@H]2CCCN2C(=O)[C@H](CCC(=O)O)NC(=O)[C@@H](NC(=O)[C@H](Cc2ccc(O)cc2)NC(=O)CN2CCN(CC(=O)O)CCN(CC(=O)O)CCN(CC(=O)O)CC2)CSCc2cccc(c2)CSC[C@@H](C(N)=O)NC(=O)[C@H](CO)NC(=O)[C@H](Cc2c[nH]c3ccccc23)NC(=O)[C@H]([C@@H](C)O)NC1=O [3BP-3859] ({DOTA}-YCE[dP]DWLTWSC-NH2; linker 2-11 via mXylylene) tested on CAIX-expressing human HT-29 colorectal cancer cells (Homo sapiens)?
Data returned: < 10 nM

---

- test.name: In vivo efficacy, biodistribution and tolerability of 225Ac-DPI-4452 in SK-RC-52 xenograft mouse model
- Design: species or system NMRI nude mice
- study.conditions: female, NMRI nude, mouse, kidney, iv, total radioactivity; SK-RC-52 model, 15 kBq, 4 hours after dosing; read-out: kidney uptake
measurement.name: tissue uptake at 4 h (%ID/g)
Expressed in %ID/g, but write only the number.

Data request: Can you share its tissue uptake at 4 h? I mean this compound: CC(C)C[C@@H]1NC(=O)[C@H](Cc2cccc(NC(=O)CCCS(N)(=O)=O)c2)NC(=O)[C@H](CC(=O)O)NC(=O)[C@H]2CCCN2C(=O)[C@H](CCC(=O)O)NC(=O)[C@@H](NC(=O)[C@H](CCC(N)=O)NC(=O)CN2CCN(C(=O)CN3CCN(CC(=O)O)CCN(CC(=O)O)CCN(CC(=O)O)CC3)CC2)CSCc2cccc(c2)CSC[C@@H](C(N)=O)NC(=O)[C@H](CO)NC(=O)[C@H](Cc2c[nH]c3ccccc23)NC(=O)[C@H]([C@@H](C)O)NC1=O [^225Ac-DPI-4452, metal not drawn]
Data returned: 4.9

---

- test.name: Dose range finding study by intravenous route with toxicokinetics
- Type: in vivo, beagle dogs
- study.conditions: male, beagle, dog, plasma, iv; Day 13; 0.8 mg/kg i.v.; mean n = 2
measurement.name: clearance (mL/min/kg)
All answers are understood in mL/min/kg, so give the number only.

Data request: clearance lookup needed for "CC(C)C[C@@H]1NC(=O)[C@H](Cc2cccc(NC(=O)CCCS(N)(=O)=O)c2)NC(=O)[C@H](CC(=O)O)NC(=O)[C@H]2CCCN2C(=O)[C@H](CCC(=O)O)NC(=O)[C@@H](NC(=O)[C@H](CCC(N)=O)NC(=O)CN2CCN(C(=O)CN3CCN(CC(=O)O)CCN(CC(=O)O)CCN(CC(=O)O)CC3)CC2)CSCc2cccc(c2)CSC[C@@H](C(N)=O)NC(=O)[C@H](CO)NC(=O)[C@H](Cc2c[nH]c3ccccc23)NC(=O)[C@H]([C@@H](C)O)NC1=O" , thanks.
Data returned: 3.52

---

- target.or.system: human carbonic anhydrase IX (hCAIX-Fc) (Homo sapiens, UniProt Q16790)
- Construct: purchased SinoBliological (Sino Biological) 10107-H02H
- test.name: Surface plasmon resonance assay with hCAIX-Fc
- Type: binding
- study.conditions: SPR, hCAIX-Fc captured, 25° C.; read-out: pKD category (activity) (converted)
Starred links: 1 amine or outer side, 2 acyl side, 3 side chain; linkers in the order of their positions; H or OH if unused. Positions of bridges follow the written chain, without caps; N, C: chain ends. Non-standard residues stand in square brackets, D forms with d. Residues, ends and D or L forms follow the SMILES beside them. *: point of attachment. DOTA = O=C(O)CN1CCN(CC(=O)O)CCN(CC(=O)*)CCN(CC(=O)O)CC1; mXylylene = c1cc(C[*:1])cc(C[*:2])c1; Dap = NC[C@H](N)C(=O)O; Inp = O=C(O)C1CCNCC1
Kd values, listed per item

Data request: Report Kd for CC(C)C[C@@H]1NC(=O)[C@H](Cc2c[nH]c3ccccc23)NC(=O)[C@H](CC(=O)O)NC(=O)[C@H]2CCCN2C(=O)[C@H](CCC(=O)O)NC(=O)[C@@H]2CSCc3cccc(c3)CSC[C@@H](C(N)=O)NC(=O)[C@H](CNC(=O)C[C@H](NC(=O)C3CCN(C(=O)CN4CCN(CC(=O)O)CCN(CC(=O)O)CCN(CC(=O)O)CC4)CC3)C(=O)N2)NC(=O)[C@H](Cc2c[nH]c3ccccc23)NC(=O)[C@H]([C@@H](C)O)NC1=O [3BP-4256] ({DOTA-Inp}-DCE[dP]DWLTW[Dap]C-NH2; lactam 1-10; linker 2-11 via mXylylene) please.
Data returned: < 10 nM

# input for lookup
Data request: Look at this molecule and give its reported Kd. CC(C)C[C@@H]1NC(=O)[C@H](Cc2cccc(NC(=O)CCCC(=O)NO)c2)NC(=O)[C@H](CC(=O)O)NC(=O)[C@H]2CCCN2C(=O)[C@H](CCC(=O)O)NC(=O)[C@@H](NC(=O)[C@H](CCC(N)=O)NC(=O)CN2CCN(C(=O)CN3CCN(CC(=O)O)CCN(CC(=O)O)CCN(CC(=O)O)CC3)CC2)CSCc2cccc(c2)CSC[C@@H](C(N)=O)NC(=O)[C@H](CO)NC(=O)[C@H](Cc2c[nH]c3ccccc23)NC(=O)[C@H]([C@@H](C)O)NC1=O [3BP-4515]
Data returned: < 10 nM

---

- test.name: Pharmacokinetic characterization in healthy mice
- Format: in vivo, CD-1 mice
- study.conditions: male, CD-1, plasma, iv; mouse, i.v. 5.5 mg/kg; read-out: terminal elimination half-life (converted)
measurement.name: half-life (min)
# output: bare number, implied unit min

Data request: Which measured half-life value corresponds to "CC(C)C[C@@H]1NC(=O)[C@H](Cc2cccc(NC(=O)CCCS(N)(=O)=O)c2)NC(=O)[C@H](CC(=O)O)NC(=O)[C@H]2CCCN2C(=O)[C@H](CCC(=O)O)NC(=O)[C@@H](NC(=O)[C@H](CCC(N)=O)NC(=O)CN2CCN(C(=O)CN3CCN(CC(=O)O)CCN(CC(=O)O)CCN(CC(=O)O)CC3)CC2)CSCc2cccc(c2)CSC[C@@H](C(N)=O)NC(=O)[C@H](CO)NC(=O)[C@H](Cc2c[nH]c3ccccc23)NC(=O)[C@H]([C@@H](C)O)NC1=O" ?
Data returned: 27.9
